B1: HDV Ribozyme (parent)
chain: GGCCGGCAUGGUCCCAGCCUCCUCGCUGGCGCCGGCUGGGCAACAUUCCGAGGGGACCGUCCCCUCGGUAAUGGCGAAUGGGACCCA

variants of: B1; test: self-cleavage, relative activity (ratio to wild type); higher = more cleavage; co-transcriptional
reported_endpoint: self-cleavage
Answer field: number only, no words.

• G67A C84U = 0.658
• G53U C57A = 0.944
• G6A G34A = 0.0287
• C21U C22U = 0.0702
• A77C G80C = 0.179
• C63U A71U = 1.02

Quick one: self-cleavage for U46C A56G ?
0.643

Same again, this time with A71G G82C
0.151

Same again, this time with C49U G55A
0.866

Same again, this time with C3A C19G
0.0441

Same again, this time with A43U U79G
0.162

Same again, this time with G39C G67A
0.134

Same again, this time with G35U C84A
0.308

Same again, this time with U37G U72C
0.119
